Test system: SF-268 CNS
assay.name: NCI tumour cell line growth inhibition, 48 h
Each entry below carries its recorded TGI.

- compound: "NC(=O)c1ncn2c1NC(=O)CC2"
  TGI: "> 100 µM"
- compound: "O=[N+]([O-])c1ccc(CSCc2ccc(Cl)cc2)cc1"
  TGI: "> 100 µM"
- compound: "CC(C)(C)C(=O)C(Cc1ccccc1)C(=O)C(C)(C)C"
  TGI: "> 100 µM"
- compound: "COc1ccc(N=Nc2c3c(c(O)c4ccccc24)CCC(C)(C)O3)cc1"
  TGI: "31.5 µM"
- compound: "c1ccc(-c2cnc(-c3ccc(-c4ncc(-c5ccccc5)o4)cc3)o2)cc1"
  TGI: "> 100 µM"
- compound: "O=C(NCc1ccc(S(=O)(=O)c2cc(F)cc(F)c2)cc1)c1ccc2nccn2c1"
  TGI: "> 100 µM"
- compound: "Clc1cc(Cl)cc(Nc2ccc3cc(OCCCN4CCOCC4)ccc3n2)c1"
  TGI: "> 100 µM"
- compound: "O=C(NO)c1ccc(CN(c2cnccn2)c2cnccn2)cc1"
  TGI: "32.7 µM"
- compound: "CCCOC(=O)NC(C)C(=O)NC(CCC(=O)NC(CCCC(N)C(=O)O)C(=O)NC(C)C(=O)O)C(=O)O (configuration not stated)"
  TGI: "42.3 µM"
- compound: "O=c1n(Cc2ccccc2)c(=O)n2c(=O)n(Cc3ccccc3)c(=O)n12"
  TGI: "> 100 µM"
- compound: "CC(C)(C)OC(=O)C1C(=O)NC(=O)CC1C(COCc1ccccc1)OCc1ccccc1 (configuration not stated)"
  TGI: "59.3 µM"
- compound: "CCCCC#CS(=O)(=O)C(F)(F)F"
  TGI: "> 100 µM"
- compound: "Nc1nc(N)nc(CCCc2nc(N)nc(N)n2)n1"
  TGI: "> 100 µM"
- compound: "CC1=CC(=O)C(C(O)(C(F)(F)F)C(F)(F)F)C(C)(C)C1 (configuration not stated)"
  TGI: "> 10 µM"
- compound: "CCN(CC)CCNc1ccc2ncn3c4cc(OC)c(OC)c(=O)c4c(O)c1c23"
  TGI: "17.6 µM"
- compound: "Cn1ccnc1Sc1ccc(C=Nc2ccc3nc(SCC(=O)NC4CCCCC4)sc3c2)cc1[N+](=O)[O-]"
  TGI: "> 100 µM"
- compound: "CC1(C)[C@@H](Cn2cnc3c(Cl)nc(N)nc32)CC[C@@]1(C)CO"
  TGI: "43.3 µM"
- compound: "O=C(O)c1ccc2c(c1)CC1(C2)Cc2cc3c(cc2C1=O)CCC3 (configuration not stated)"
  TGI: "> 100 µM"
- compound: "COc1cc2c(c(O)c1O)-c1ccc(OC)c(=O)cc1C(NC(C)=O)CC2 (configuration not stated)"
  TGI: "> 100 µM"
- compound: "CCOC(=O)Cn1c(=O)n(C)c(=O)c2c1ncn2Cc1ccccc1"
  TGI: "> 100 µM"
- compound: "COC(=O)/C(=C\\c1ccc(N(CCC#N)CCC#N)cc1)NC(=O)c1cc([N+](=O)[O-])ccc1Cl"
  TGI: "> 100 µM"
- compound: "COP(=O)(OC)C12CCOCCN1c1ccccc1C2=O (configuration not stated)"
  TGI: "> 100 µM"

----------
System: OVCAR-3 ovarian
assay.name: NCI tumour cell line growth inhibition, 48 h

- molecule: "COc1ccc(N=C2C(=S)N(c3ccc(OC)cc3)/C(=N/S(=O)(=O)c3ccccc3)N2c2ccccc2)cc1"
  measured.on: "OVCAR-3 ovarian"
  TGI: "18.1 µM"
- molecule: "Cn1cc(-c2ccc(-c3cncc(Cl)c3N3CCC4(CCNC4=O)CC3)cc2)cn1"
  measured.on: "OVCAR-3 ovarian"
  TGI: "> 100 µM"
- molecule: "O=C(CCc1cccc(O)c1)NCCCNC(=O)CCc1cccc(O)c1"
  measured.on: "OVCAR-3 ovarian"
  TGI: "> 100 µM"
- molecule: "O=S1(=O)OCCOS(=O)(=O)C1Cl"
  measured.on: "OVCAR-3 ovarian"
  TGI: "> 100 µM"
- molecule: "COC(=O)c1cccc2cccc(C(=O)Nc3ccc(Cl)cc3)c12"
  measured.on: "OVCAR-3 ovarian"
  TGI: "> 100 µM"
- molecule: "CN1CCN(c2ccc(Nc3ncc4cc(C#N)c(=O)n(C5CCCC5)c4n3)cc2)CC1"
  measured.on: "OVCAR-3 ovarian"
  TGI: "> 24.2 µM"
- molecule: "O=C1C(=O)N(c2cc(Cl)ccc2Cl)C(=O)C(=O)C1c1nc2ccccc2o1"
  measured.on: "OVCAR-3 ovarian"
  TGI: "> 100 µM"
- molecule: "Cc1cc(C(C)(C)C)cc(Cc2cc(C(C)(C)C)cc(Cc3cc(C(C)(C)C)cc(C)c3O)c2O)c1O"
  measured.on: "OVCAR-3 ovarian"
  TGI: "16.5 µM"
- molecule: "CCOC(=O)C(C)c1nc2c(Cl)c3ncccc3cc2[nH]c1=O (stereo not given)"
  measured.on: "OVCAR-3 ovarian"
  TGI: "> 100 µM"
- molecule: "CC1=CC(=O)C(C(O)(C(F)(F)F)C(F)(F)F)C(C)(C)C1 (stereo not given)"
  measured.on: "OVCAR-3 ovarian"
  TGI: "> 10 µM"

----------
Tested on: SK-MEL-2 melanoma
assay.name: NCI tumour cell line growth inhibition, 48 h; in the data active = GI50 below about 0.43 µM; inactive = the rest
Outcome codes: active, inactive

- compound: "Cc1cc(C)n(-c2nnc3n2N=C(c2ccc(-c4ccccc4)cc2)CS3)n1"
  classification: "inactive"
- compound: "O=c1[nH]c(=O)n([C@H]2CCCO2)cc1F"
  classification: "inactive"
- compound: "Clc1ccc(N=CNc2ccc(-c3nc4ccccc4o3)cc2)cc1"
  classification: "inactive"
- compound: "COc1ccc(-c2csc(NC(=O)CSc3nc(C)c(-c4ccccc4)n3Nc3ccccc3)n2)cc1"
  classification: "inactive"
- compound: "O=C(NCc1ccc(S(=O)(=O)c2cc(F)cc(F)c2)cc1)c1ccc2nccn2c1"
  classification: "inactive"
- compound: "CCCCCc1ccc(S(=O)(=O)Nc2cc(-c3csc(NC(C)=O)n3)ccc2N2CCN(C)CC2)cc1"
  classification: "inactive"
- compound: "O=C1CSC(c2ccc(-c3nc4ccccc4s3)cc2)=N1"
  classification: "inactive"
- compound: "COc1ccc(Cc2cnc(NC(=O)c3ccc4c(c3)OCCO4)s2)cc1"
  classification: "active"
- compound: "C=CCN1CC2CON(C(=O)C(OC)(c3ccccc3)C(F)(F)F)C2C1C(C)C (configuration not stated)"
  classification: "inactive"
- compound: "O=C(N/N=C/c1ccc([N+](=O)[O-])o1)c1ccc(O)cc1"
  classification: "inactive"
- compound: "Cn1cc(-c2ccc(-c3cncc(Cl)c3N3CCC4(CCNC4=O)CC3)cc2)cn1"
  classification: "inactive"
- compound: "[F][Sn]([F])([c]1ccccc1)[c]1ccccc1"
  classification: "inactive"
- compound: "Cn1c(=O)c2c(ncn2CC(=O)Nc2ccc(-c3ccccc3)nn2)n(C)c1=O"
  classification: "inactive"
- compound: "C[C@]12CC[C@@H]3c4ccc(O)c([N+](=O)[O-])c4CC[C@H]3[C@@H]1CC[C@@H]2NS(=O)(=O)c1cccc(Br)c1"
  classification: "inactive"
- compound: "O=C(N/N=C/c1c(Cl)cccc1Cl)c1ccc(C(F)(F)F)nc1Nc1cccc(C(F)(F)F)c1"
  classification: "inactive"
- compound: "CC/C=C/C/C=C/C/C=C/C/C=C/C/C=C/C/C=C/CCC(=O)Nc1ccn([C@@H]2O[C@H](CO)[C@@H](O)C2(F)F)c(=O)n1"
  classification: "inactive"
- compound: "O=C1C(Cl)=C(Nc2ccccc2O)C(=O)N1Cc1ccccc1"
  classification: "inactive"

----------
Test system: SF-268 CNS
assay.name: NCI tumour cell line growth inhibition, 48 h; in the data active means GI50 below about 0.43 µM; inactive means the rest
Classes used: yes (active), no (inactive)

- record.smiles: "CC[C@@]1(O)C(=O)OCc2c1cc1n(c2=O)Cc2c-1nc1cc(F)c(C)c3c1c2[C@@H](N)CC3"
  measured.on: "SF-268 CNS"
  classification: "yes"
- record.smiles: "O=C1C(Cl)=C(Nc2ccccc2O)C(=O)N1Cc1ccccc1"
  measured.on: "SF-268 CNS"
  classification: "no"
- record.smiles: "O=C(NCc1ccc(S(=O)(=O)c2cc(F)cc(F)c2)cc1)c1ccc2nccn2c1"
  measured.on: "SF-268 CNS"
  classification: "no"
- record.smiles: "Cn1c(=O)c2c(ncn2CC(=O)Nc2ccc(-c3ccccc3)nn2)n(C)c1=O"
  measured.on: "SF-268 CNS"
  classification: "no"
- record.smiles: "N#Cc1ccc(OC(=O)Nc2ccc(Cl)c(Cl)c2)cc1"
  measured.on: "SF-268 CNS"
  classification: "no"

----------
System: MDA-MB-231 breast
assay.name: NCI tumour cell line growth inhibition, 48 h

- molecule: "CCOC(=O)C1CN(C2CC2)CCC1=O (stereo not given)"
  TGI: "> 100 µM"
- molecule: "S=C1SC2=Nc3ccccc3CN2C2=NCCN12"
  TGI: "> 100 µM"
- molecule: "N#CC(=N)c1ncn(-c2ccccc2N)c1N"
  TGI: "> 100 µM"
- molecule: "CC12CC1C(c1cccc([N+](=O)[O-])c1)(c1cccc([N+](=O)[O-])c1)N=N2 (stereo not given)"
  TGI: "39.1 µM"
- molecule: "Nc1nc(Nc2ccccc2)sc1C(=O)c1c[nH]c2ccccc12"
  TGI: "32.3 µM"
- molecule: "O=C1CS(=O)C23c4cc5ccccc5n4CCC2CCCN13 (stereo not given)"
  TGI: "> 100 µM"
- molecule: "COC(=O)c1cc(C)ccc1CC(Cc1ccc(C)cc1)C(=O)OC (stereo not given)"
  TGI: "> 100 µM"
- molecule: "COC(C(=O)[C@@H](O)[C@@H](C)O)[C@@H]1Cc2cc3cc(O[C@H]4C[C@@H](O[C@H]5C[C@@H](O)[C@H](O)C(C)O5)[C@H](O)C(C)O4)c(C)c(O)c3c(O)c2C(=O)[C@H]1O[C@H]1C[C@@H](O[C@H]2C[C@@H](O[C@H]3C[C@@H](O)[C@H](OC)C(C)O3)[C@@H](O)C(C)O2)[C@H](O)C(C)O1 (stereo not given in full)"
  TGI: "> 33.3 µM"
- molecule: "Cc1ncc([N+](=O)[O-])n1CCNS(=O)(=O)CCCn1ncnc1[N+](=O)[O-]"
  TGI: "> 100 µM"
- molecule: "Nc1nc(N)c2cc(CNc3ccc(C(=O)NC(CC(=O)O)C(=O)O)c(Cl)c3)ccc2n1 (stereo not given)"
  TGI: "> 500 µM"
- molecule: "CC(C)C1=C2CCC3(C)C(CCC4C5C6OCC5(CCC6(C)C)CCC43C)C2(C)CC1 (stereo not given)"
  TGI: "37.3 µM"
- molecule: "O=C(NO)c1ccc(CN(c2cnccn2)c2cnccn2)cc1"
  TGI: "63.4 µM"
- molecule: "CCN(CC)c1cc2oc3cc(N)cc(=N)c-3nc2cc1C"
  TGI: "> 100 µM"
- molecule: "COc1ccc(/C=C(/c2ccccc2)[N+](=O)[O-])cc1"
  TGI: "3.09 µM"
- molecule: "C/C(=N\\NC(=S)N1CC2CCC(CC2)C1)c1ccccn1"
  TGI: "2.45 µM"
- molecule: "O=C(OCc1ccc2c(Cl)cc(Cl)c(O)c2n1)N1CCN(C(=O)c2cc3cc(F)ccc3[nH]2)CC1"
  TGI: "> 55.6 µM"
- molecule: "CN1COCc2cc3cc4c(cc3nc21)OCCO4"
  TGI: "> 100 µM"
- molecule: "COC(=O)c1cc2c(cc1CC(Cc1ccc3c(c1)CCC3)C(=O)OC)CCC2 (stereo not given)"
  TGI: "> 100 µM"
- molecule: "O=c1oc2ccc(Br)cc2c(=O)n1-c1ccc(F)cc1F"
  TGI: "6.96 µM"
- molecule: "Cc1cc(/N=C/c2ccc(C#N)cc2)n(-c2ccccc2)n1"
  TGI: "> 100 µM"

Reference source: PubChem BioAssay (NCI)
